- Target system: Apisum RDL2b variant 1 (Acyrthosiphon pisum, UniProt A0A385J709)
- Test method notes: GABA concentration response, two-electrode voltage-clamp in X. laevis oocytes
- Test settings: mean ± SEM of 4-5 oocytes
- Method: Functional studies of Apisum RDL1ad, Apisum RDL1bd and Apisum RDL2b variant 1 were performed using the X. laevis expression system and two-electrode voltage-clamp electrophysiology. […] Data are presented as mean ± SEM of individual oocytes from three or more separate frogs. […] Statistical significance was determined as p < 0.05, performed using one-way ANOVA (Graphpad Software, CA, USA).
Test readout: pEC50
# log scale: pEC50 equals minus log10 of the concentration in mol/L

Provide only the value of recorded pEC50 for NCCCC(=O)O
4.55

* * *

- Target system: Apisum RDL1bd (Acyrthosiphon pisum, UniProt A0A385J708)
- Test method notes: GABA concentration response, two-electrode voltage-clamp in X. laevis oocytes
- Test settings: mean ± SEM of 4-5 oocytes
Test readout: EC50 (µM)
Expressed in µM, but write only the number.

Provide only the value of recorded EC50 for NCCCC(=O)O [GABA, γ-aminobutyric acid]
51

* * *

- Target system: Apisum RDL1ad (Acyrthosiphon pisum)
- Sequence (A0A385J708 33-567): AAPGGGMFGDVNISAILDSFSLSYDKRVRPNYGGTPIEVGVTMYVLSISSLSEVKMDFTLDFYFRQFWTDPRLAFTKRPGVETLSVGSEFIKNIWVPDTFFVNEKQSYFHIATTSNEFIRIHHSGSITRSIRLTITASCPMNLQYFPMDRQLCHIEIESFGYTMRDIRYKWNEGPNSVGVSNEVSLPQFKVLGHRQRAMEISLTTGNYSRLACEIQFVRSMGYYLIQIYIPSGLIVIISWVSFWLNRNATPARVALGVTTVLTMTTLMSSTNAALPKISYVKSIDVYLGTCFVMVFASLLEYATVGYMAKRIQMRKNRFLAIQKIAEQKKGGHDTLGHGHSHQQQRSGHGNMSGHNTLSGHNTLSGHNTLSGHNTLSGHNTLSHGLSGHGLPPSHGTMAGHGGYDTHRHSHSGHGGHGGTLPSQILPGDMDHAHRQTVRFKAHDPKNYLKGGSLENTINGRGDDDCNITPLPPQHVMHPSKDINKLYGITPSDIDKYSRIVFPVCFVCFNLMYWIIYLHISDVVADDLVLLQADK
- Test method notes: Fipronil inhibition of GABA EC50 induced currents, two-electrode voltage-clamp in X. laevis oocytes
- Test settings: GABA at EC50 (20 μM); 3 min pre-incubation; mean ± SEM
- Method: Functional studies of Apisum RDL1ad, Apisum RDL1bd and Apisum RDL2b variant 1 were performed using the X. laevis expression system and two-electrode voltage-clamp electrophysiology. […] Data are presented as mean ± SEM of individual oocytes from three or more separate frogs. […] Statistical significance was determined as p < 0.05, performed using one-way ANOVA (Graphpad Software, CA, USA).
Test readout: pIC50
# log scale: pIC50 equals minus log10 of the concentration in mol/L

Provide only the value of recorded pIC50 for N#Cc1nn(-c2c(Cl)cc(C(F)(F)F)cc2Cl)c(N)c1[S+]([O-])C(F)(F)F (stereo not shown) [Fipronil, fipronil]
6.19

* * *

- Target system: Apisum RDL1bd (Acyrthosiphon pisum, UniProt A0A385J708)
- Sequence (A0A385J708 33-567): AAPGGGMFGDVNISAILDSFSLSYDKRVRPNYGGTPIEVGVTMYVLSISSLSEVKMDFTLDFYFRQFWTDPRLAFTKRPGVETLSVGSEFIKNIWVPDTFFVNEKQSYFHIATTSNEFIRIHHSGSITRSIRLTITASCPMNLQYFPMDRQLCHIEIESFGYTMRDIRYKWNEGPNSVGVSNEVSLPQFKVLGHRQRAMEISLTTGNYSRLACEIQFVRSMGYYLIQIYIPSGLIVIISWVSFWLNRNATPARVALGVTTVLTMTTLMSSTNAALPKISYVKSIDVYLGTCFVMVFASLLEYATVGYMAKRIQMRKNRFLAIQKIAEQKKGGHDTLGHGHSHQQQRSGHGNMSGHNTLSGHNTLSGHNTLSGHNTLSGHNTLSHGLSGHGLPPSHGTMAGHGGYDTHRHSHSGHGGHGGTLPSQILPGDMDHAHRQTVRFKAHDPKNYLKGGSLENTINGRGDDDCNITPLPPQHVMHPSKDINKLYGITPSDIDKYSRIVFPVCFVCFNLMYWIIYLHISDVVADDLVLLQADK
- Test method notes: Fipronil inhibition of GABA EC50 induced currents, two-electrode voltage-clamp in X. laevis oocytes
- Test settings: GABA at EC50 (50 μM); 3 min pre-incubation; mean ± SEM
Test readout: IC50

Provide only the value of recorded IC50 for N#Cc1nn(-c2c(Cl)cc(C(F)(F)F)cc2Cl)c(N)c1[S+]([O-])C(F)(F)F (stereo not shown) [Fipronil, fipronil]
180 nM

* * *

- Target system: Apisum RDL1ad (Acyrthosiphon pisum)
- Sequence (A0A385J708 33-567): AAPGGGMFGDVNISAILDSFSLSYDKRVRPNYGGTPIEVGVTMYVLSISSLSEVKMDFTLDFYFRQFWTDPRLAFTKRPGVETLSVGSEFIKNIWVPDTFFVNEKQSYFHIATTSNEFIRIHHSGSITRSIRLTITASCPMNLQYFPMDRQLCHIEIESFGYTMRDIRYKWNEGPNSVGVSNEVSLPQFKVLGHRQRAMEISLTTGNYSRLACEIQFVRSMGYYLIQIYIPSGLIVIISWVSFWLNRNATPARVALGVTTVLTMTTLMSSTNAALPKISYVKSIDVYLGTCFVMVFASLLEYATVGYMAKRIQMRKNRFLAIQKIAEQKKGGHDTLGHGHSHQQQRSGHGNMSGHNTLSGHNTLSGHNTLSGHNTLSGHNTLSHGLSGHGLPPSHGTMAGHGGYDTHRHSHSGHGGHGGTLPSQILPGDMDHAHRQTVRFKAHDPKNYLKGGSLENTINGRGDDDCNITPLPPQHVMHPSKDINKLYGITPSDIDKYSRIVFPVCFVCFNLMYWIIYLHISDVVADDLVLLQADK
- Test method notes: GABA concentration response, two-electrode voltage-clamp in X. laevis oocytes
- Test settings: mean ± SEM of 4-5 oocytes
Test readout: pEC50
# log scale: pEC50 equals minus log10 of the concentration in mol/L

Provide only the value of recorded pEC50 for NCCCC(=O)O [GABA, γ-aminobutyric acid]
4.64
